test: soluble on expression in E. coli; label from the status in PepcDB or PDB records
OBSERVED PROPERTY: soluble on expression in E. coli

Illustrative cases are given below, each with its answer.
SEQUENCE RECORD	OBSERVED PROPERTY	ASSAY VALUE
MGHHHHHHSHMAVVRATSADVDLMARLLRAEAEGEGKQGMLLVGNVGINRLRANCSDFKGLRTIRQMIYQPHAFEAVTHGYFYQRARDSERALARGSINGERRWPAKFSLWYFRPQGDCPAQWYNQPFVARFKSHCFYQPTAETCENVYNTF	soluble on expression in E. coli	not soluble
MAHHHHHHMSWRVSCKTALLDELFTYIAGKTDANTLQKECVLALPQLETLAKMLGFSLDDMSMYRLAWSWSCEAPLCIRKSEFVNGMNAICSGVKLSATATSSTCSASPVKSPKKEFEPILLALRNHVETLDGALRGDVTKFRHFYRFIYKWVQSPLTMERNMGQVGMSIETAVELWRMLFPHYREFKRLDDWITFCMSKKLFPHGIISRDLWEQLLEFTFVTDYSKYDVSDAWPSAMDDFVEYVKSKV	soluble on expression in E. coli	not soluble
HKRPVPAKRYDNVTILFSGIVGFNAFCSKHASGEGAMKIVNLLNDLYTRFDTLTDSRKNPFVYKVETVGDKYMTVSGLPEPCIHHARSICHLALDMMEIAGQVQVDGESVQITIGIHTGEVVTGVIGQRMPRYCLFGNTVNLTSRTETTGEKGKINVSEYTYRCLMSPENSDPQFHLEHRGPVSMKGKKEPMQVWFLSRKNTGTEETKQDDDAENLYFQ	soluble on expression in E. coli	soluble
MDEIDLRILKILQYNAKYSLDEIAREIRIPKSTLSYRIKKLEKDGVIKGYYAYINPASLNLDYIVITSVKAKYGKNYHVELGNKLAQIPGVWGVYFVLGDNDFIVMARYKTREEFMEKFLERVMSIPEVERASTQVVVKIIKESPNIVIF	soluble on expression in E. coli	soluble
SLGWFKTCSKQEDNDVCVVQNVVLAQNGQMITAVGLITVEGKVNRKLLQVSVPTARLIPPGVMMQIDGGKGQKLDYAVCLPDKCTAEVPLTDAMIASLKKGSEVVFTSINFRRAPNPIKIALSGFTGAYDGAAITQSQLAE	soluble on expression in E. coli	not soluble
MDSENKTSIAIGCKVCNKYKVTKLLGGGSYGCVHEVIELKTGDRYAMKSEYSSMKKPILLNELKVMKAIYTFSSQHVLKVRDMGVHGSTKFIIMQMLEKNMDEVFELLGGSMTLNTAVATSYQCLEGLEFMHWAGFLHRDIKPNNYCLDANSGQGLRTIYIIDYGICKRFVDNNNVIRQPRKITKFRGTLDFAPIVSHELREHSRGSDLES	soluble on expression in E. coli	not soluble
MAQDIKNEEVEEVQEEEVVKTAEETTPEKSELDLANERADEFENKYLRAHAEMQNIQRRANEERQNLQRYRSQDLAKAILPSLDNLERALAVEGLTDDVKKGLGMVQESLIHALKE	soluble on expression in E. coli	not soluble

Entry under review: MSVNSIYTDREEIDSEFEDEDFEKEGIATVERAMENNHDLDTALLELNTLRMSMNVTYHEVRIATITALLRRVYHFIATQTLGPKDAVVKVFNQWGLLFKRQAFDEEEYIDLMNIIMEKIVEQSFDKPDLILFSALVSLYDNDIIEEDVIYKWWDNVSTDPRYDEVKKLTVKWVEWLQNADEESSSEEE . Reported soluble on expression in E. coli?
soluble
